system: DMS-273; experiment: NCI tumour cell line growth inhibition, 48 h
Calls of active or inactive are those of the source. Rule as the data show it: active = GI50 up to about 1.1 µM and inactive = higher.
Allowed answers: active, inactive

# compound, class
records = [
    ("CCOc1ccccc1N1C(=O)C(=O)C(c2nc3ccccc3o2)/C(=N\\N)C1=O (stereo not given)", "inactive"),
]

Asked: Dear all, I need the recorded test outcome for `CCOC(=O)C(=O)Nc1ccc(C)c(C)c1` , thank you.
Given back: inactive

Asked: Another: CC1C(=O)C(C)C(c2ccco2)N(N=O)C1c1ccco1 (stereo not given)
Given back: inactive

Asked: Another: CCC/C=C\C=C\C1(NS(=O)(=O)c2ccc(C)cc2)CCC(C(C)(C)C)CC1 (stereo not given)
Given back: inactive

Asked: Another: Cc1cc(Cl)ccc1NC(=O)CC1SC(N)=NC1=O (stereo not given)
Given back: inactive

Asked: Another: `CC(=O)O[C@]1(C)OC(=O)[C@@H](C)N1[N+](=O)[O-]`
Given back: inactive

Asked: Another: `CC(=O)Nc1ccc2c(c1)C(=O)c1ccccc1-2`
Given back: inactive

Asked: Another: O=C(O)c1ccc(C2COc3ccc(Cl)cc3C2)cc1 (stereo not given)
Given back: inactive

Asked: Another: `CN(/N=C/c1cccc2cccnc12)c1c([N+](=O)[O-])cc([N+](=O)[O-])cc1[N+](=O)[O-]`
Given back: inactive

Asked: Another: `O=C(N/C(=C\c1ccccc1[N+](=O)[O-])c1nc2ccccc2[nH]1)c1ccccc1`
Given back: inactive

Asked: Another: `O=C(CCn1[nH]c(=O)c(Cl)c(Cl)c1=O)NOCCCc1ccccc1`
Given back: inactive

Asked: Another: CCCCCC(O)C1C(=O)OC(C)C(O)/C=C/C=C/C=C/C=C/C=C(\C)C(O)C(O)C(O)CC(O)CC(O)CC(O)CC(O)CC1O (stereo not given)
Given back: inactive

Asked: Another: `CC(C)C(=O)Nc1nc2[nH]cnc2c(=O)[nH]1`
Given back: inactive

Asked: Another: CCCCNCCCNCCCNC(=O)c1csc(-c2csc(CCNC(=O)C(NC(=O)C(C)C(O)C(C)NC(=O)C(NC(=O)c3nc(C(CC(N)=O)NCC(N)C(N)=O)nc(N)c3C)C(OC3OC(CO)C(O)C(O)C3OC3OC(CO)C(O)C(OC(N)=O)C3O)c3c[nH]cn3)C(C)O)n2)n1 (stereo not given)
Given back: active

Asked: Another: `CN(C)c1ccc(Cc2cc(C(C)(C)C)cc(C(C)(C)C)c2O)cc1`
Given back: inactive

Asked: Another: `COC(=O)C(C)(C)/N=C/N(C)C`
Given back: inactive

# credit: ChEMBL document CHEMBL1201862
